Hello, the source for this data is ChEMBL document CHEMBL1201862, in case you need it.

A collection of compounds and their measured GI50
# Test system: EKVX
# Test name: NCI tumour cell line growth inhibition, 48 h
Calls of active or inactive are those of the source. Cut-off read from the data, not from the text of the source: active = GI50 up to about 1.1 µM and inactive = higher. Positions of bridges follow the written chain, without caps; N, C: chain ends. Non-standard residues stand in square brackets, D forms with d. Residues, ends and D or L forms follow the SMILES beside them. ξ: configuration not given here. *: point of attachment. X28 = O=C(/C=C/C=C/C=C/C=C/C=C/C(=O)*)NC1=C(O)CCC1=O; Pro(4R-Me) = C[C@H]1CN[C@H](C(=O)O)C1; NMeA = CN[C@@H](C)C(=O)O; ξF = NC(Cc1ccccc1)C(=O)O; ξA = CC(N)C(=O)O

compound=CSc1nnc2n1-c1ccccc1SCC2 experimental_value="> 100 µM (inactive)"

// GI50 value for Cc1cccc(C)c1NC(=O)/C(CC(=O)CC(c1ccccc1)c1c(O)c2ccccc2oc1=O)=N/O (stereo not drawn) : > 100 µM (inactive)

// GI50 value for Cc1nn(C(=O)c2ccncc2)c2c1C(c1ccccc1)SC(=N)N2 (stereo not drawn) : > 10 µM (inactive)

// GI50 value for CC1NC(=O)[C@H](C)N(C)C(=O)[C@@H]2CCCN2C(=O)[C@@H](NC(=O)C(Cc2ccccc2)NC(=O)/C=C/C=C/C=C/C=C/C=C/C(=O)NC2=C(O)CCC2=O)COC(=O)[C@@H]2C[C@@H](C)CN2C1=O (stereo partly drawn) (X28-[ξF]SP[NMeA][ξA][Pro(4R-Me)]; ester 2-C) : > 100 µM (inactive)

// GI50 value for CC1(C)C[C@H]2[C@H](O)C(CO)=C3C(=O)[C@@H](O)[C@]3(C)[C@H]2C1 : > 100 µM (inactive)

// GI50 value for N#C/C(=C1\N=C(c2ccccc2O)Oc2ccccc21)c1ccc([N+](=O)[O-])cc1 : > 100 µM (inactive)

// GI50 value for O=CC12C3CCC1C2C(=O)C3 (stereo not drawn) : > 100 µM (inactive)

// GI50 value for CCCCCC(=O)Cc1cc(OC)cc2c1C(=O)Oc1cc(O)c(C(=O)O)c(CC(=O)CCCCC)c1O2 : 33.1 µM (inactive)

// GI50 value for c1ccc2c(c1)Nc1cccc3c1c-2nc1cc2ccccc2cc13 : 1.55 µM (inactive)

// GI50 value for O=C(O)C1CCCCC1c1c2ccc(=O)c(O)c-2oc2c(O)c(O)ccc12 (stereo not drawn) : 38.1 µM (inactive)

// GI50 value for O=C(O)CCC(=O)c1ccc2ccc3cccc4ccc1c2c34 : 58.2 µM (inactive)

// GI50 value for N=C1C(=N)c2ccccc2-c2ccccc21 : 1.9 µM (inactive)

// GI50 value for COc1ccc(OC)c2[s+]snc12 : > 100 µM (inactive)

----------
A collection of molecules and their measured GI50
# Test system: SK-MEL-5
# Test name: NCI tumour cell line growth inhibition, 48 h
Active and inactive are the calls of the source. No stated cut-off is given here; in the data, active = GI50 up to about 1.1 µM and inactive = higher.

molecule=COc1c(C)c(OC)c2c(c1O)[C@@H]1[C@@H]3Cc4c(OC)c(C)c(OC)c(O)c4[C@H](CNC(=O)c4cnc5ccccc5n4)N3[C@@H](C#N)[C@H](C2)N1C experimental_system=SK-MEL-5 experimental_value="0.00254 µM (active)"

// GI50 value for O=C1C=CC2(O)OCC3C=C4O[C@@H]5OC6(CCCCC6)O[C@@H]5C4[C@@H]2[C@@H]13 (stereo partly drawn) : 43.5 µM (inactive)

// GI50 value for COc1ccc2c(C)cc(N/N=C(\C)C=O)nc2c1 : 12.7 µM (inactive)
